// provenance: PubChem BioAssay AID1159580

procedure-text: chemical genetic growth profiling, strain panel (AID 1159580);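 note: tested at 20 µM; growth read once vehicle control cultures reached saturation at 30 °C; 1 = growth at the plate median or of vehicle wells; lower values mean less growth of the strain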
experimental-setup: S. cerevisiae deletion strains, growth OD, locus YPR167C, strain met16, hits give low values
Screen size: about 5,500 compounds; about 2,000 (36%) were called active. About 18% were inconclusive and are not listed. The list shows a part of the results.
endpoint-label: normalized growth

These recorded examples may help you get a feel for the data.
compound | normalized growth
CNC(=O)CSP(=S)(OC)OC | 1.02 (inactive)
CC1(C)C[C@@H]2C(=O)CC[C@H]3O[C@]3(C)CC[C@H]21 | 0.995 (inactive)
C=C(C)c1cc2cc(C(C)=O)c(O)cc2o1 | 0.927 (inactive)
CC(C)=CCOc1c2occc2cc2ccc(=O)oc12 | 0.782 (active)
COc1cc2ccc(=O)oc2c(O)c1O | 0.994 (inactive)

Req: Recorded normalized growth for `Cn1c(=O)[nH]c(=O)c2[nH]cnc21` , please?
Resp: 0.965 (inactive)

Req: # repeat for CC(=O)O[C@@H]1CC2C(C)(C)C(=O)[C@@H]3O[C@@H]3[C@]2(C)C2CC[C@]3(C)C(=CC(=O)O[C@H]3c3ccoc3)[C@@]21C (stereo partly specified)
Resp: 0.999 (inactive)
